This collection of values is drawn from patent US20250051307A1.

Entries annotated with measured solubility at 24 h
Experiment: Solubility determination in water and biological media
Type: physicochemical
Conditions: thermodynamic from solid; water, 37° C., 24 h; solubility is in free state; read-out: 24 h solubility (mg/mL) Water

Below: 2 compounds and their reported solubility at 24 h.
1) CON=C(C)C(=O)N1CCC(Nc2cc(C(=O)NC[C@H](O)CN3CCc4ccccc4C3)ncn2)CC1.O=C(O)C[C@H](O)C(=O)O: > 4.9 mg/mL
2) CON=C(C)C(=O)N1CCC(Nc2cc(C(=O)NC[C@H](O)CN3CCc4ccccc4C3)ncn2)CC1.O=C(O)C(=O)O: > 9.1 mg/mL

Shifting focus to the compound that follows.
Incoming: What measured solubility at 24 h goes with CON=C(C)C(=O)N1CCC(Nc2cc(C(=O)NC[C@H](O)CN3CCc4ccccc4C3)ncn2)CC1 ?
Outgoing: 0.39 mg/mL
